- Experimental system: Threonine--tRNA ligase (Salmonella enterica)
- Assay notes: Inhibition of recombinant salmonella enterica threonyl-tRNA synthetase assessed as reduction in enzyme activity at 10 uM incubated for 20 min by Kinase Glo luminescence assay relative to control
Measured parameter: inhibition (%)
Write the number in % without appending the unit.

Prompt: Quick one: inhibition for C[C@@H](O)[C@H](N)C(=O)N[C@@H](CNC(=O)CCn1cnc2cc(Br)c(Cl)cc2c1=O)c1cccc(-c2ccc3ccccc3c2)c1 ?
Completion: 85

Prompt: Now consider C[C@@H](O)[C@H](N)C(=O)N[C@@H](CNC(=O)CCn1cnc2cc(Br)c(Cl)cc2c1=O)c1cccc(-c2ccccc2)c1 and answer again.
Completion: 82

Prompt: Now consider C[C@@H](O)[C@H](N)C(=O)N[C@H](CNC(=O)CCn1cnc2cc(Br)c(Cl)cc2c1=O)c1cccc(-c2ccc3c(N)ncnc3c2)c1 and answer again.
Completion: 57

Prompt: Now consider C[C@@H](O)[C@H](N)C(=O)NCC=CCn1cnc2cc(Cl)c(Cl)cc2c1=O and answer again.
Completion: 45
